# TESTED TARGET: Potassium voltage-gated channel subfamily A member 5 (Homo sapiens)
# Sequence (P22460 whole entry): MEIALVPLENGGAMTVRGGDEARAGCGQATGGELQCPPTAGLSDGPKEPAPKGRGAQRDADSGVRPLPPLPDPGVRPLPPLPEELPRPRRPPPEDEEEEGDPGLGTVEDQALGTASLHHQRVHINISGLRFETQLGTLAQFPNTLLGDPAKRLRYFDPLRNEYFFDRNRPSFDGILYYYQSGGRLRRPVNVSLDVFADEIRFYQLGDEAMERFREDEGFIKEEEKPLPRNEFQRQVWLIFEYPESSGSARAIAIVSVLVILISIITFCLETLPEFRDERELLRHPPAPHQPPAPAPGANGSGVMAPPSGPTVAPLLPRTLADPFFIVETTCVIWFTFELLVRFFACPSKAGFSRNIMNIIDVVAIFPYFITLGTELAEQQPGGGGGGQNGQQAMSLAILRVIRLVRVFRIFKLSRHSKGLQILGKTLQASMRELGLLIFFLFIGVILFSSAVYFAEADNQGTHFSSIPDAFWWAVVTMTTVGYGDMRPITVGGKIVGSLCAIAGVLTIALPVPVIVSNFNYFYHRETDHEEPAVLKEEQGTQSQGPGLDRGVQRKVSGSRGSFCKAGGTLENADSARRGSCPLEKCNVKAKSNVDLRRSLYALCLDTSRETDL
# EXPERIMENTAL DETAILS: Inhibition of human Kv1.5 ion channel expressed in CHO K1 cells
pIC50: −log10 of the molar value.
Listing of recorded pIC50 by entry.
MEASURED PARAMETER: pIC50

[
  {
    "MOLECULE": "CC(C)(CNC(=O)c1ncccc1O)CN(C1=NS(=O)(=O)c2cc(F)ccc21)c1ccccc1",
    "RESULT MODIFIER": "=",
    "READING": 6.34
  },
  {
    "MOLECULE": "CN1CCCCC1C(=O)NCC(C)(C)CN(C1=NS(=O)(=O)c2cc(F)ccc21)c1ccccc1 (stereo unspecified)",
    "RESULT MODIFIER": "=",
    "READING": 5.54
  },
  {
    "MOLECULE": "CC(C)(CNC(=O)C1CC1(F)F)CN(C1=NS(=O)(=O)c2cc(F)ccc21)c1ccccc1 (stereo unspecified)",
    "RESULT MODIFIER": "=",
    "READING": 6.49
  },
  {
    "MOLECULE": "CC(C)(CNC(=O)CC(F)(F)F)CN(C1=NS(=O)(=O)c2cc(F)ccc21)c1ccccc1",
    "RESULT MODIFIER": "=",
    "READING": 6.57
  },
  {
    "MOLECULE": "O=c1ccc2c(OCCCCOc3ccccc3)c3ccoc3cc2o1",
    "RESULT MODIFIER": "=",
    "READING": 5.46
  },
  {
    "MOLECULE": "CC(C)(CNC(=O)C1(O)CCC(F)(F)CC1)CN(C1=NS(=O)(=O)c2cc(F)ccc21)c1ccccc1",
    "RESULT MODIFIER": "=",
    "READING": 6.20
  },
  {
    "MOLECULE": "CC(C)(CNC(=O)C1(O)CCCCC1)CN(C1=NS(=O)(=O)c2cc(F)ccc21)c1ccccc1",
    "RESULT MODIFIER": "=",
    "READING": 6.35
  },
  {
    "MOLECULE": "CC(C)(CNC(=O)C1CCCCN1)CN(C1=NS(=O)(=O)c2cc(F)ccc21)c1ccccc1 (stereo unspecified)",
    "RESULT MODIFIER": "=",
    "READING": 5.22
  },
  {
    "MOLECULE": "CC(C)(CNC(=O)c1cocn1)CN(C1=NS(=O)(=O)c2cc(F)ccc21)c1ccccc1",
    "RESULT MODIFIER": "=",
    "READING": 6.05
  },
  {
    "MOLECULE": "CC(C)(CNC(=O)C1(C(=O)O)CC1)CN(C1=NS(=O)(=O)c2cc(F)ccc21)c1ccccc1",
    "RESULT MODIFIER": "<",
    "READING": 4.30
  },
  {
    "MOLECULE": "CC(C)(CNC(=O)c1cscn1)CN(C1=NS(=O)(=O)c2cc(F)ccc21)c1ccccc1",
    "RESULT MODIFIER": "=",
    "READING": 6.54
  },
  {
    "MOLECULE": "CC(C)(CNC(=O)C1COCCN1)CN(C1=NS(=O)(=O)c2cc(F)ccc21)c1ccccc1 (stereo unspecified)",
    "RESULT MODIFIER": "=",
    "READING": 5.70
  },
  {
    "MOLECULE": "CC(C)(CNC(=O)c1ccco1)CN(C1=NS(=O)(=O)c2cc(F)ccc21)c1ccccc1",
    "RESULT MODIFIER": "=",
    "READING": 6.39
  },
  {
    "MOLECULE": "CC(C)(CNC(=O)C1(C(F)(F)F)CCC1)CN(C1=NS(=O)(=O)c2cc(F)ccc21)c1ccccc1",
    "RESULT MODIFIER": "=",
    "READING": 6.49
  },
  {
    "MOLECULE": "CN1CCC(C(=O)NCC(C)(C)CN(C2=NS(=O)(=O)c3cc(F)ccc32)c2ccccc2)CC1",
    "RESULT MODIFIER": "<",
    "READING": 4.30
  },
  {
    "MOLECULE": "CC(C)(CNC(=O)C1(C#N)CCOCC1)CN(C1=NS(=O)(=O)c2cc(F)ccc21)c1ccccc1",
    "RESULT MODIFIER": "=",
    "READING": 6.25
  },
  {
    "MOLECULE": "CC(C)(CNC(=O)C1CC1)CN(C1=NS(=O)(=O)c2cc(F)ccc21)c1ccccc1",
    "RESULT MODIFIER": "=",
    "READING": 6.31
  },
  {
    "MOLECULE": "CC(C)(CNC(=O)c1ccoc1)CN(C1=NS(=O)(=O)c2cc(F)ccc21)c1ccccc1",
    "RESULT MODIFIER": "=",
    "READING": 6.44
  },
  {
    "MOLECULE": "CC(C)(CNC(=O)C1(C(F)(F)F)CC1)CN(C1=NS(=O)(=O)c2cc(F)ccc21)c1ccccc1",
    "RESULT MODIFIER": "=",
    "READING": 6.62
  },
  {
    "MOLECULE": "Cn1ccnc1C(=O)NCC(C)(C)CN(C1=NS(=O)(=O)c2cc(F)ccc21)c1ccccc1",
    "RESULT MODIFIER": "=",
    "READING": 6.28
  },
  {
    "MOLECULE": "CC(C)(CNC(=O)C1(C#N)CC1)CN(C1=NS(=O)(=O)c2cc(F)ccc21)c1ccccc1",
    "RESULT MODIFIER": "=",
    "READING": 6.27
  },
  {
    "MOLECULE": "CN1CCCC1C(=O)NCC(C)(C)CN(C1=NS(=O)(=O)c2cc(F)ccc21)c1ccccc1 (stereo unspecified)",
    "RESULT MODIFIER": "=",
    "READING": 5.86
  },
  {
    "MOLECULE": "CC(C)(CNC(=O)C1(O)CCCC1)CN(C1=NS(=O)(=O)c2cc(F)ccc21)c1ccccc1",
    "RESULT MODIFIER": "=",
    "READING": 6.14
  },
  {
    "MOLECULE": "CC(C)(CNC(=O)C1(N)CCCC1)CN(C1=NS(=O)(=O)c2cc(F)ccc21)c1ccccc1",
    "RESULT MODIFIER": "=",
    "READING": 5.58
  },
  {
    "MOLECULE": "CN1CCCC(C(=O)NCC(C)(C)CN(C2=NS(=O)(=O)c3cc(F)ccc32)c2ccccc2)C1 (stereo unspecified)",
    "RESULT MODIFIER": "=",
    "READING": 4.86
  },
  {
    "MOLECULE": "CC(C)(CNC(=O)c1cnccn1)CN(C1=NS(=O)(=O)c2cc(F)ccc21)c1ccccc1",
    "RESULT MODIFIER": "=",
    "READING": 6.46
  },
  {
    "MOLECULE": "CC(C)(CNC(=O)c1cc2ccccc2o1)CN(C1=NS(=O)(=O)c2cc(F)ccc21)c1ccccc1",
    "RESULT MODIFIER": "<",
    "READING": 4.30
  },
  {
    "MOLECULE": "CC(C)(CNC(=O)C1CCCCO1)CN(C1=NS(=O)(=O)c2cc(F)ccc21)c1ccccc1 (stereo unspecified)",
    "RESULT MODIFIER": "=",
    "READING": 6.36
  },
  {
    "MOLECULE": "CC(C)(CNC(=O)C1CCCO1)CN(C1=NS(=O)(=O)c2cc(F)ccc21)c1ccccc1 (stereo unspecified)",
    "RESULT MODIFIER": "=",
    "READING": 6.08
  },
  {
    "MOLECULE": "CC(C)(CNC(=O)N1CCCC1)CN(C1=NS(=O)(=O)c2cc(F)ccc21)c1ccccc1",
    "RESULT MODIFIER": "=",
    "READING": 6.47
  },
  {
    "MOLECULE": "CC(C)(CNC(=O)C1(O)CC1)CN(C1=NS(=O)(=O)c2cc(F)ccc21)c1ccccc1",
    "RESULT MODIFIER": "=",
    "READING": 5.87
  },
  {
    "MOLECULE": "Cn1cnc(C(=O)NCC(C)(C)CN(C2=NS(=O)(=O)c3cc(F)ccc32)c2ccccc2)c1",
    "RESULT MODIFIER": "=",
    "READING": 4.86
  },
  {
    "MOLECULE": "CC(C)(CNC(=O)CC1CCCCO1)CN(C1=NS(=O)(=O)c2cc(F)ccc21)c1ccccc1 (stereo unspecified)",
    "RESULT MODIFIER": "=",
    "READING": 6.11
  },
  {
    "MOLECULE": "CNC(=O)NCC(C)(C)CN(C1=NS(=O)(=O)c2cc(F)ccc21)c1ccccc1",
    "RESULT MODIFIER": "=",
    "READING": 5.65
  },
  {
    "MOLECULE": "CC(C)(CNC(=O)C1(O)CCOCC1)CN(C1=NS(=O)(=O)c2cc(F)ccc21)c1ccccc1",
    "RESULT MODIFIER": "=",
    "READING": 5.70
  },
  {
    "MOLECULE": "CC(C)(CNC(=O)C1(C)CC1)CN(C1=NS(=O)(=O)c2cc(F)ccc21)c1ccccc1",
    "RESULT MODIFIER": "=",
    "READING": 6.43
  }
]
